experimental-target: HuR (Homo sapiens)
Construct: Full length (residue 1–326), RRM1-2 (residue 1–190); inferred from pET14b vector and metal chelation chromatography) (N)
Sequence (Q15717 whole entry): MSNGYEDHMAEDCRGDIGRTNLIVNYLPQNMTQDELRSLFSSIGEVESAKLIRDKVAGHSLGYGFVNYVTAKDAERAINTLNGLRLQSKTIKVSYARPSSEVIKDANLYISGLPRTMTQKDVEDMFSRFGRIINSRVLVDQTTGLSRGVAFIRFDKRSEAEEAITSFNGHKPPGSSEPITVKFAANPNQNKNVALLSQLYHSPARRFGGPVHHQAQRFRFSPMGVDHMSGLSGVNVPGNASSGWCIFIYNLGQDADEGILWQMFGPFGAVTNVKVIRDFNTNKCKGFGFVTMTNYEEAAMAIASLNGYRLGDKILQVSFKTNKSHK
protocol-text: Fluorescence polarization (FP) competition / dose-response assay of HuR/RNA interaction
condition-info: 10nM RNA and 50nM HuR, compounds serially diluted from 250uM
just bin them by IC50: category 1 = under 20 µM, category 2 = from 20 µM up to 40 µM, category 3 = 40 µM and over

[
  {
    "molecule": "CCOC(=O)C(=O)Cc1cccnn1",
    "class-name": "category 1"
  },
  {
    "molecule": "O=C(O)C1=NN(c2cc(Cl)c(S(=O)(=O)O)cc2Cl)C(=O)C1",
    "class-name": "category 1"
  },
  {
    "molecule": "COc1cccc2c1C(=O)c1c(O)c3c(c(O)c1C2=O)CC(O)(/C(C)=N/O)CC3OC1CC(N)C(O)C(C)O1 (centres unmarked)",
    "class-name": "category 2"
  },
  {
    "molecule": "COCC(=O)OC1CCn2c1nc1c2C(=O)C(C)=C(NC(C)=O)C1=O (centres unmarked)",
    "class-name": "category 1"
  },
  {
    "molecule": "CO[C@@H]1[C@@H](OC(=O)c2ccc(C)[nH]2)[C@@H](O)[C@H](Oc2ccc3c(O)c(NC(=O)c4ccc(O)c(CC=C(C)C)c4)c(=O)oc3c2Cl)OC1(C)C",
    "class-name": "category 3"
  },
  {
    "molecule": "CSc1nc(N)c(N=Nc2ccc([As](=O)(O)O)cc2)c(=O)[nH]1",
    "class-name": "category 1"
  },
  {
    "molecule": "CC#CC#Cc1cccc(=O)o1",
    "class-name": "category 3"
  },
  {
    "molecule": "O=C(Nc1cccc([N+](=O)[O-])c1)c1ccc2ccccc2c1O",
    "class-name": "category 3"
  },
  {
    "molecule": "O=C(O)c1cc(N2C(=O)C=CC2=O)cc(N2C(=O)C=CC2=O)c1",
    "class-name": "category 2"
  },
  {
    "molecule": "COC(=O)CC1OCC=C2CN3CCC45C6=CC(=O)C(=O)C([N+](=O)[O-])=C6NC4C1C2CC35 (centres unmarked)",
    "class-name": "category 3"
  }
]
